biological target: UniProt P51449; test: RORγt binding test using fluorescent-labeled synthetic ligand (TR-FRET); conditions: test compound 1 μM; read-out: binding inhibitory rate (%) of fluorescent-labeled synthetic ligand to RORγt at test compound 1 μM
Sequence (P51449 1-497 isoform P51449-2, species assumed): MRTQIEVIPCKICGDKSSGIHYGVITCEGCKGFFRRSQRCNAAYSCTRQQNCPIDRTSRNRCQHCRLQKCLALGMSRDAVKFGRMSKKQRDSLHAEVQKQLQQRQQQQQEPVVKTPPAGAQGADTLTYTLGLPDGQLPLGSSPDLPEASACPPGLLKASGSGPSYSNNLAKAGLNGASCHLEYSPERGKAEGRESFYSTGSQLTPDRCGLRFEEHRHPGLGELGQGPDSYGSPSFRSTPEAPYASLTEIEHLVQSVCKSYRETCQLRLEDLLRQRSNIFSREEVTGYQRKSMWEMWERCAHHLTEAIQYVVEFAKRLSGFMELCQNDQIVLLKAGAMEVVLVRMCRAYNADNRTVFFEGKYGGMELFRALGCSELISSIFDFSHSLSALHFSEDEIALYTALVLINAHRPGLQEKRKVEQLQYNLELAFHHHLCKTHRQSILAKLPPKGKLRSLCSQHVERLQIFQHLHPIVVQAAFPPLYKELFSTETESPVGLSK
Provide the recorded inhibition at 1 µM for the entries that follow.

query: Tell me measured inhibition at 1 µM for CC(C)n1c(=O)n(CC2CC2)c(=O)c2cc(NC(=O)N3CCC[C@@H](NC(=O)c4ccc5c(c4)CCO5)C3)ccc21 [Example 251] please.
result: 102%

query: Tell me measured inhibition at 1 µM for CC(C)n1c(=O)n(CC2CC2)c(=O)c2cc(NC(=O)N3CCC[C@@H](NC(=O)c4ccc(CNC(=O)OC(C)(C)C)cc4)C3)c(F)cc21 [Example 319] please.
result: 101%

query: Tell me measured inhibition at 1 µM for CC(C)n1c(=O)n(CC2CC2)c(=O)c2cc(NC(=O)N3CCC[C@@H](NC(=O)c4ccc(Cl)cc4)C3)ccc21 [Example 247] please.
result: 102%

query: Tell me measured inhibition at 1 µM for CC(C)n1c(=O)n(CC2CCCO2)c(=O)c2cc(NC(=O)N3CCO[C@@H](C(=O)Nc4ccc(C#N)c(Cl)c4)C3)c(F)cc21 (stereo partly drawn) [Example 333] please.
result: 101%

query: Tell me measured inhibition at 1 µM for COC(=O)c1cccc(C(=O)NC2CCCN(C(=O)Nc3ccc4c(c3)c(=O)n(CC3CC3)c(=O)n4C(C)C)C2)c1 (stereo not drawn) [Example 113] please.
result: 102%

query: Tell me measured inhibition at 1 µM for COc1ccc2c(c1)C(=O)N([C@@H]1CCCN(C(=O)Nc3cc4c(=O)n(CC5CC5)c(=O)n(C(C)C)c4cc3F)C1)C2 [Example 303] please.
result: 102%
